Recorded values, source ChEMBL document CHEMBL1128364.

Tested on: Rattus norvegicus
Assay: In vivo anti-oxytocic activity was determined.
Type: functional, organism-based
Conditions: read-out: pA2 (converted)
Quick list: Kb per entry.
Numbers only here, please. The scale is µM.

Examples from the recorded data:
Structure smiles | Target entity | Kb, µM
CC[C@H](C)[C@@H]1NC(=O)[C@@H](Cc2c[nH]c3ccccc23)NC(=O)CC2(CCCCC2)SSC[C@@H](C(=O)N2CCC[C@H]2C(=O)N[C@@H](CCCN)C(=O)NCC(N)=O)NC(=O)[C@H](CC(N)=O)NC(=O)[C@H]([C@@H](C)O)NC1=O | Rattus norvegicus | 0.0457
CC[C@H](C)[C@@H]1NC(=O)[C@H](Cc2ccc(OC)cc2)NC(=O)CC2(CCCCC2)SSC[C@H](C(=O)N2CCC[C@H]2C(=O)N[C@@H](CCCN)C(=O)O)NC(=O)[C@H](CC(N)=O)NC(=O)[C@H]([C@@H](C)O)NC1=O | Rattus norvegicus | 0.138
CC[C@H](C)[C@@H]1NC(=O)[C@H](Cc2ccc(OC)cc2)NC(=O)CC2(CCCCC2)SSC[C@H](C(=O)N2CCC[C@H]2C(=O)N[C@@H](CCCN)C(=O)N[C@@H](Cc2ccc(O)cc2)C(N)=O)NC(=O)[C@H](CC(N)=O)NC(=O)[C@H]([C@@H](C)O)NC1=O | Rattus norvegicus | 0.0832

Okay, next one:
*Q* So what does the record say about Kb for CC[C@H](C)[C@@H]1NC(=O)[C@H](Cc2ccc(OC)cc2)NC(=O)CC2(CCCCC2)SSC[C@H](C(=O)N2CCC[C@H]2C(=O)N[C@@H](CCCN)C(=O)NCC(N)=O)NC(=O)[C@H](CC(N)=O)NC(=O)[C@H](CCC(N)=O)NC1=O ?
*A* 0.0468
